# System: untransfected HEK293 cells
# Experiment Description: Counterscreen, antagonist mode, Ca2+ signal in untransfected HEK cells
# Assay type: cell-based
# Condition Notes: Homo sapiens, HEK293; S3 Table, counterscreen titration; unit inferred; read-out: HEK ANT Final EC50
pEC50: −log10 of the molar value.
Measurement Type: pEC50

Prompt: Please report pEC50 for the following molecule: Cc1onc(-c2ccccc2)c1C(=O)N1CCN(C2c3ccccc3-c3ccccc32)CC1
Completion: < 4.91

###

# System: untransfected HEK293 cells
# Experiment Description: Counterscreen, agonist mode, Ca2+ signal in untransfected HEK cells
# Type: cell-based
# Condition Notes: Homo sapiens, HEK293; S2 Table, counterscreen titration; unit inferred; read-out: HEK AG Final EC50
Measurement Type: EC50

- Molecule: "O=C(C1CCCCC1)N1CC(=O)N2CCc3ccccc3C2C1 (centres unmarked) [PZQ, praziquantel, reference compound]"
  EC50: "> 12.4 µM"

In the following, a different molecule is considered.
Prompt: Return reported EC50 for target or system untransfected HEK293 cells, item COc1ccc(-c2nnc3ccc(-c4cccc(C(C)C)c4)cn23)cc1OC [AG1] .
Completion: > 12.4 µM
